SYSTEM_UNDER_TEST: EP4 (Homo sapiens, UniProt P35408)
Sequence (P35408 whole entry): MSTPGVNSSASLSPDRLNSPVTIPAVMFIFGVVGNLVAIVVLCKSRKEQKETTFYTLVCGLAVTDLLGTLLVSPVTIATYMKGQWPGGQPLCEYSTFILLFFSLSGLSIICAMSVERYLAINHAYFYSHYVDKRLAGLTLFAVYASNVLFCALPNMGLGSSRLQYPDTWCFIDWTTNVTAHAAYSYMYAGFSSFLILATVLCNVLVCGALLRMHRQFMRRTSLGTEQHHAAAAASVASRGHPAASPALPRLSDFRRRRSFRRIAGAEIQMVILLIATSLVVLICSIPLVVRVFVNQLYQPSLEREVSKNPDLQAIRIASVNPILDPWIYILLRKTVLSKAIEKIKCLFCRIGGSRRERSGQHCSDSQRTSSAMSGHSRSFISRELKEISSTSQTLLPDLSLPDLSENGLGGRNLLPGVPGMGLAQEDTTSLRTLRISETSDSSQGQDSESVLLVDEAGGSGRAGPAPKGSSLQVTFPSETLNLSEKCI
TEST_SUMMARY: cAMP responsive element (CRE) luciferase reporter assay
Assay type: cell-based
Design: host or cells: HEK293 (results) / CHO-K1 (methods)
QUANTITY: pIC50
On this scale, pIC50 is minus log10 of a concentration expressed in M (mol/L).

Query: pIC50; subject: C[C@H](NC(=O)c1c(Cc2cccc(C(F)(F)F)c2)sc2c1CCOC2)c1ccc(C(=O)O)cc1
8.14

====

SYSTEM_UNDER_TEST: EP4 (Homo sapiens, UniProt P35408)
TEST_SUMMARY: TANGO assay (EP4/β-arrestin2 interaction)
Type: cell-based
Design: tTA transcription factor (C); expressed in transfected cells; host or cells: CHO-K1
QUANTITY: pIC50
In plain terms, pIC50 is the concentration in mol/L turned into minus its base-10 logarithm.

Looking for the measured pIC50 of C[C@H](NC(=O)c1c(Cc2cccc(C(F)(F)F)c2)sc2c1CCOC2)c1ccc(C(=O)O)cc1 [L001] , can you help?
9.80

The measured values listed here are drawn from paper PMC8879074.
